Just for reference, patent US20210300908A1 is where these values come from.

Exercise: state measured pEC50 for each of the compounds provided.
molecular target: S1P1 receptor (Homo sapiens); test: S1P1 receptor agonistic activity (PathHunter cell strain, chemiluminescent signal detection); details: PathHunter cells, agonist mode, 37° C. 90-180 minutes
Sequence (P21453 whole entry): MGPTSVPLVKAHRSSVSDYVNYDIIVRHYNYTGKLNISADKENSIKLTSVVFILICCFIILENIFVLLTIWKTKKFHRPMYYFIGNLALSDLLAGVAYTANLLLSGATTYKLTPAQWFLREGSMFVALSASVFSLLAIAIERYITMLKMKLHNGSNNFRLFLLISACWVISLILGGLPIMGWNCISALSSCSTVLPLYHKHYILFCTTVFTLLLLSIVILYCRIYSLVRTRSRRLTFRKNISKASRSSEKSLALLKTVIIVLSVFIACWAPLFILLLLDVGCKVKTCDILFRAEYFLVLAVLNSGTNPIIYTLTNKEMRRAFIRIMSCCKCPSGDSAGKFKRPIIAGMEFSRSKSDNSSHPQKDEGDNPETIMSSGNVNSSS
pEC50: −log10 of the molar value.

# map each compound to its pEC50
1. Cc1nc(C)c(-c2nc(-c3cccc4c3CC3CC(=O)N(CCO)C43)no2)o1 (centres unmarked)
2. COCOc1ccc(-c2nc(-c3cccc4c3CC3CC(=O)N(CCO)C43)no2)cc1 (centres unmarked)
3. CC(C)Oc1ccc(-c2nc(-c3cccc4c3CC3CC(=O)N(CCO)C43)no2)cc1C#N (centres unmarked) [Example 1 Mixture]
4. CC(C)Oc1ccc(-c2nc(-c3cccc4c3CC3CC(=O)N(CCO)C43)no2)cc1Br (centres unmarked)
5. O=C1CC2Cc3c(-c4noc(-c5cn6c(n5)CCCC6)n4)cccc3C2N1CCO (centres unmarked)

OUTPUT:
1. < 7.00
2. < 7.00
3. > 8.00
4. > 8.00
5. < 7.00
